Catalogue of pKd values
systemUnderTest: T1, human Napi2b-mCherry on HEK293 cells (human, UniProt O95436 1-690)
T1 construct: also called Napi2b (SLC34A2); HEK293 cells overexpressing Napi2b
T1 sequence: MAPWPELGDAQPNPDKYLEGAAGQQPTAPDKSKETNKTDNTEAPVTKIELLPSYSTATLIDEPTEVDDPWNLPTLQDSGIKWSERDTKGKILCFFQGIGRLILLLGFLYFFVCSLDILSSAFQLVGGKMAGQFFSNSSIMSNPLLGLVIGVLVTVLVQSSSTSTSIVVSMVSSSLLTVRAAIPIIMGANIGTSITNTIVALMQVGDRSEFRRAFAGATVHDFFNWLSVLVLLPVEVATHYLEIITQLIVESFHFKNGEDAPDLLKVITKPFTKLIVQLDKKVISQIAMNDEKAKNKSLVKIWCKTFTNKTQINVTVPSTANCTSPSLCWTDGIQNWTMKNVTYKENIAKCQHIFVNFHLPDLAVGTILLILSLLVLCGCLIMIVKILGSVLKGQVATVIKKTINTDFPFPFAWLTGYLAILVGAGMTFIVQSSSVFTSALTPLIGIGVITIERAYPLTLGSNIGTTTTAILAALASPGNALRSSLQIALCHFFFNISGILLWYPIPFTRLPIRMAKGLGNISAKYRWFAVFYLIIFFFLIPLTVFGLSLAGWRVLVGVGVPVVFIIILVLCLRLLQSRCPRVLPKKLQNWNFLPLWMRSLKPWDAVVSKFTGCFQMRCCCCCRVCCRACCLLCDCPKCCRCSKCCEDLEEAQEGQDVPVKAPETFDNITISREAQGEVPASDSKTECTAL
procedureSummary: flow cytometry on HEK293 cells stably expressing human full-length NaPi2b-mCherry, Alexa-dye anti-human IgG H+L secondary antibody, MFI ratio, one-site specific binding fit; the Kd table prints no unit, the concentration axis is in nM
pKd: −log10 of the molar value.
valueType: pKd

INSERT INTO assay_data (binder, observedmeasurement) VALUES
  ('AV-15 antibody (antibody, human IgG1, kappa, L234A L235A, V domains shown) VH: EVQLVQSGAEVVKPGASVKMSCKASGYTFTGYNIHWVKQAPGQGLEWIGAIYPGNGDTSYKQKFRGRATLTADTSTSTVYMELSSLRSEDSAVYYCARGETARATFAYWGQGTLVTVSS VL: DIQMTQSPSSLSASVGDRVTITCSASQDIGKFLNWYQQKPGKTVKVLIYYSSSLYSGVPSRFSGSGSGTDYTLTISSLQPEDFATYYCQQYSKVPLTFGQGTKLELKR', 8.46),
  ('AV-18 antibody (antibody, human IgG1, kappa, L234A L235A, V domains shown) VH: EVQLVQSGAEVVKPGASVKMSCKASGYTFTGYIIHWVKQAPGQGLEWIGAIYPGSGATSYKQKFRGRATLTADTSTSTVYMELSSLRSEDSAVYYCARGETARATFAYWGQGTLVTVSS VL: DIQMTQSPSSLSASVGDRVTITCSASQDIGNFLNWYQQKPGKTVKVLIYYTSSLYSGVPSRFSGSGSGTDYTLTISSLQPEDFATYYCQQYSKLPLTFGQGTKLELKR', 8.64);
